- Test system: CSNK1G1;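 also: KINOMEscan kinase panel screen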
- condition: concentration: 1 μM, replicates: in singlicate; n = 1
metric: %Inh (%)
Give bare numbers, in %.

Would you please look over these solved cases?
molecule: O=C(CCO)NCCn1ccc2ncnc(Nc3ccc(Oc4cccc(C(F)(F)F)c4)c(Cl)c3)c21
numeric-result: 0
//
molecule: Nc1nc(-c2cccnc2)c(-c2ccnc3ccccc23)s1 [GW684083]
numeric-result: 10
//
molecule: COC(=O)c1cccc(NC(=O)NCCNc2ccnc(Nc3ccc(F)cc3)n2)c1 [GSK1379883]
numeric-result: 0

Provide reported %Inh for each item, in the same order as listed.
1. Cn1ccc2ncnc(Nc3ccc(Oc4cccc(Cl)c4)c(Cl)c3)c21
2. O=C(NCCCN1CCCC1=O)c1cnc(NCc2cc(Cl)ccc2Cl)nc1NC1CCNCC1

6
1

Provide reported %Inh for each item, in the same order as listed.
1. CSc1ccc(NC2=C(c3ccccc3Cl)C(=O)NC2=O)cc1 [SB-342411]
2. Fc1ccc(Nc2nccc(-c3c(-c4ccc(Cl)cc4)nn4ncccc34)n2)cc1F [GW829058]
3. CNc1nccc(-c2c(-c3ccc(F)cc3)ncn2C2CCN(C)CC2)n1 [SB-222903]
4. CC(C)(C)c1ccc(-n2cnc3c(N)ncnc32)cc1 [SKF-97263]

1. 16
2. 0
3. 0
4. 6
